Experiment: Rat pharmacokinetic study after IV or PO administration
Assay type: in vivo
Conditions: male, Sprague-Dawley, plasma; rat, PO 5 mg/kg
Measure Name: Tmax (min)
Entry rule: numbers only, all in min.

Q: What measured Tmax goes with Cc1cc(Cn2nnc3c(-c4ccco4)nc(N)nc32)ccc1N [vipadenant, Vipadenant] ?
A: 30

* * *

Test: Rat pharmacokinetic study after IV or PO administration
Format: in vivo
Settings: male, Sprague-Dawley, plasma; rat, IV 2 mg/kg
Measure Name: Tmax (min)
Write down the numeric answer in min and omit the unit.

Q: What measured Tmax goes with Cc1cc(Cn2nnc3c(-c4ccco4)nc(N)nc32)ccc1N ?
A: 2

* * *

Assay: Rat pharmacokinetic study after IV or PO administration
Type: in vivo
Conditions: male, Sprague-Dawley, plasma; rat, PO 5 mg/kg
Measure Name: AUC(0-t) (ng·h/mL)
Just the number please, in ng·h/mL, no unit attached.

Q: Given the compound Cc1cc(Cn2nnc3c(-c4ccco4)nc(N)nc32)ccc1N [vipadenant, Vipadenant] , what is its reported AUC(0-t)?
A: 887

* * *

Assay: Rat pharmacokinetic study after IV or PO administration
Format: in vivo
Settings: male, Sprague-Dawley, plasma; rat, IV 1 mg/kg
Measure Name: Tmax (min)
A number alone suffices; assume min.

Q: Could you share which Tmax value was measured for Cc1cc(Cn2nnc3c(-c4ccco4)nc(N)nc32)ccc1N [vipadenant, Vipadenant] ?
A: 2.6

* * *

Assay: Rat pharmacokinetic study after IV or PO administration
Format: in vivo
Settings: male, Sprague-Dawley, plasma; rat, PO 2 mg/kg; read-out: C0 or Cmax
Measure Name: Cmax (ng/mL)
Return type: number; implicit unit ng/mL.

Q: Please look up its Cmax: Cc1cc(Cn2nnc3c(-c4ccco4)nc(N)nc32)ccc1N
A: 230

* * *

Experiment: Rat pharmacokinetic study after IV or PO administration
Assay type: in vivo
Settings: male, Sprague-Dawley, plasma; rat, PO 2 mg/kg
Measure Name: Tmax (min)
Response body: numeric value in min, unit text excluded.

Q: Value lookup for Tmax; key = Cc1cc(Cn2nnc3c(-c4ccco4)nc(N)nc32)ccc1N
A: 7.5

* * *

Assay: Rat pharmacokinetic study after IV or PO administration
Type: in vivo
Conditions: male, Sprague-Dawley, plasma; rat, IV 2 mg/kg
Measure Name: AUC(0-t) (ng·h/mL)
State just the number; it will be interpreted in ng·h/mL.

Q: Recorded AUC(0-t) of Cc1cc(Cn2nnc3c(-c4ccco4)nc(N)nc32)ccc1N [vipadenant, Vipadenant] , please.
A: 1510

* * *

Assay: Rat pharmacokinetic study after IV or PO administration
Format: in vivo
Settings: male, Sprague-Dawley, plasma; rat, IV 1 mg/kg; read-out: C0 or Cmax
Measure Name: Cmax (ng/mL)
Kindly answer with a numeric value in ng/mL, unit omitted.

Q: Given the entry Cc1cc(Cn2nnc3c(-c4ccco4)nc(N)nc32)ccc1N [vipadenant, Vipadenant] , report its measured Cmax.
A: 2210
